Values from ChEMBL document CHEMBL3988442

- experimental.system: Chromo domain-containing protein 1 (Saccharomyces cerevisiae (strain ATCC 204508 / S288c) (Baker's yeast))
- procedure.text: ScCHD-1 Enzyme Inhibition Assay; also: in the data most compounds retested in dose-response had high values
- Assay type: functional
- Parameters: scale not given: direction of the effect not stated beside the values
- run.parameters: 30 µM
result.type: Percent Effect (%)
Report the value in % with no unit label.

// worked examples, Percent Effect included
Cn1ccnc1N1CCN(C(=O)Cc2ccc(F)cc2)CC1: -9.3
CSc1cccc(CNC(=O)C2CC(=O)N(CCN(C)C)C2)c1 (stereo unspecified): -3.47
FC(F)(F)Cn1ccnc1CN1CCOC(Cn2cccn2)C1 (stereo unspecified): -6.67
CCn1c(C)nnc1CN(C)C1CCN(CCCOC)C1 (stereo unspecified): -10.1
CC(=O)NCC(=O)N1CCOC2(CCCN(c3cccnc3)C2)C1 (stereo unspecified): -2.32

Record c1cnnc(N2CCCC(NCc3nnc(-c4ccco4)o3)C2)c1 (stereo unspecified) , field Percent Effect: -1.66

The recorded Percent Effect for Cc1c[nH]cc1C(=O)N1CCN(CCc2cccs2)CC1 is 0.816

The measured Percent Effect associated with Cc1ccccc1CN(C)Cc1nc2c(cnn2C)c(=O)[nH]1 reads -3.59

Quick note, Percent Effect for CCC1=N[C@@]2(CC[C@@H]3CN(C(=O)NCc4ccccc4)C[C@@H]32)C(=O)N1 landed at -0.556

# Percent Effect of CN(C)c1ccc(C(=O)NCC2(c3ccccc3)CCOCC2)cc1 = -24.2

Percent Effect reported for this molecule O=C(O)[C@@H]1CN(C(=O)c2cc(C3CC3)n[nH]2)C[C@H]1c1cccc(F)c1 : -6.55

Data point: O=C(CCNc1ncccn1)N1CCCC(n2ccnc2)C1 (stereo unspecified) ; Percent Effect = -20.9

Percent Effect measured on CCS(=O)(=O)CC(=O)NC(c1ccc(F)cc1)C1CCCC1 (stereo unspecified) = -4.36

For record CN1CC(=O)N(c2ccsc2)CC12CCN(C(=O)c1ccccc1)C2 (stereo unspecified) the listed Percent Effect is 1.01

Percent Effect measured on CCc1ccccc1CN1CC[C@@H](NC(=O)c2cccnc2)[C@H](O)C1 = -3.67

Percent Effect reported for this molecule Cc1cnn(CC2CN(CC(=O)Nc3nnc(C)s3)CCO2)c1 (stereo unspecified) : -12.5

// sample c1ccc(CCNC2CCc3ncnn3C2)nc1 (stereo unspecified) , its Percent Effect was -9.93

Percent Effect measured on Cc1cc(CNC2CCCN(c3cccnn3)C2)no1 (stereo unspecified) = -2.81

# Percent Effect of COc1ccccc1C(O)CNCc1c(C(C)C)nn(C)c1N(C)C (stereo unspecified) = -10.1

Looking up O=C(CCc1ccccc1)Nc1ncccc1OC(F)F , I see its Percent Effect listed as -2.3

The molecule identified as CN(CC1COc2ccccc2O1)C(=O)NCCCn1cncn1 (stereo unspecified) registered its Percent Effect at -11.6

Percent Effect reading for Cc1cccc(-c2noc(CN3CCCC(Cn4cncn4)C3)n2)c1 (stereo unspecified) : -4.86

Record summary for Cn1ncc2c1C(COCC1CC1)CN(Cc1nccs1)C2 (stereo unspecified) : reported Percent Effect = -10.6

Documented Percent Effect of c1ccc(OCCN2CCCC(c3noc(C4CC4)n3)C2)cc1 (stereo unspecified) : -2.68

// Percent Effect value for O=C(c1nn(-c2ccccc2F)cc1O)N1CCCC1 : 4.21

Lab book: Percent Effect of CN(C)[C@H]1CCCCN(C(=O)CCc2csc(N)n2)C1 noted as 0.286

Just so you know, measured Percent Effect for CCN(CC1CCOC1)C(=O)Nc1ccc(-n2cncn2)nc1 (stereo unspecified) came out at -5.86

Percent Effect reading for CC(=O)N1CCC2(CCN(C(=O)c3ccc(C)c(C(F)(F)F)c3)CC2)C1 : -3.98

// recorded Percent Effect for O=S(=O)(CCNCc1ccc2c(c1)CCO2)N1CCOCC1 : -4.8

Value of Percent Effect reported for the molecule CNc1cc2c(nn1)CCN(C(=O)C1CCCc3ccccc31)C2 (stereo unspecified) is -3.47

The molecule Cc1nc(COc2ccc(CNCC3CN(C)CCO3)cc2)cs1 (stereo unspecified) showed Percent Effect equal to -1.69

---

Recorded measurements of Percent Effect, one per entry
- experimental.system: Tyrosyl-tRNA synthetase, putative (Trypanosoma cruzi (strain CL Brener)) (UniProt Q4DSP6)
- procedure.text: Trypanosoma cruzi tyrosyl tRNA synthetase (TcYRS) SOP
- Format: functional
- Parameters: scale not given: direction of the effect not stated beside the values
- run.parameters: 30 µM
Write down the numeric answer in % and omit the unit.

Guide cases for Percent Effect, answers given:
N#Cc1ccc(C(=O)N2CC[C@H]3[C@@H]2CCC(=O)N3c2cccnc2)cc1: 12.8
COCCO[C@H]1CCN(C(=O)c2ccno2)[C@H]1Cc1cnn(C)c1: -3.66
CS(=O)(=O)NCc1nnc2n1CCN(Cc1cccs1)C2: 12.8
COC(=O)c1ccc(S(=O)(=O)NCc2cccnc2N(C)C)cc1: 16.5
CCc1ccc(CN2CCC3(CC2)CC(N2CCN(C)CC2)CO3)cc1 (stereo not drawn): 5.13

Documented Percent Effect of COc1ccc(CN2CCn3cc(Cn4cccn4)nc3C2)cc1 : -8.97

For this compound ( Cc1cccc(C(=O)NCc2ccc(N3CCCCC3)nc2)n1 ), measured Percent Effect is 15.2

So, CN(Cc1ccccc1)CC(O)Cn1cnc2ccsc2c1=O (stereo not drawn) ? Its Percent Effect was 1.21

---

- Tested on: Trypanosoma cruzi
- procedure.text: Trypanosoma cruzi phosphomannomutase and mannose-1-phosphate guanylyltransferase assay
- Format: functional
- Design: scale not given: direction of the effect not stated beside the values
- run.parameters: 10 µM
Quick list: Percent Effect per entry.
Report only the number, with the unit % understood.

Known Percent Effect results, listed for orientation:
CC(=O)N1CCCN(C(=O)CCc2c(C)noc2C)CC1: 3.95
O=C1NC2(CCN(Cc3nccs3)CC2)CC1c1ccncc1 (centres undefined): 6.13
O=C(O)c1ccc(F)c(S(=O)(=O)Nc2c(F)cccc2-n2cccn2)c1: 2.04
Cc1nnc(C(C)NCC2(c3c(F)cccc3F)CCCC2)o1 (centres undefined): -0.965
Fc1ccc(CN2CCCC2c2cncc(-n3ccnc3)n2)cc1 (centres undefined): -0.986
CN(CCC#N)C(=O)CN1CCCC1c1ccsc1 (centres undefined): -3.62
O=C(c1ccc(F)cc1Cl)N1CCC(Nc2cccnn2)CC1: 5.41
COc1ccc(OCC(=O)NC(C)c2ccccc2)c(C(=O)O)c1 (centres undefined): -4.4

Please turn your attention to the following entry.
The recorded Percent Effect for O=C1CC[C@H]2[C@H](CCN2C(=O)C2CCCO2)N1Cc1ccncc1 (some centres undefined) is 2.36

---

Percent Effect for assorted molecules
- experimental.system: Tyrosyl-tRNA synthetase, putative (Trypanosoma cruzi (strain CL Brener)) (UniProt Q4DSP6)
- Sequence (whole entry): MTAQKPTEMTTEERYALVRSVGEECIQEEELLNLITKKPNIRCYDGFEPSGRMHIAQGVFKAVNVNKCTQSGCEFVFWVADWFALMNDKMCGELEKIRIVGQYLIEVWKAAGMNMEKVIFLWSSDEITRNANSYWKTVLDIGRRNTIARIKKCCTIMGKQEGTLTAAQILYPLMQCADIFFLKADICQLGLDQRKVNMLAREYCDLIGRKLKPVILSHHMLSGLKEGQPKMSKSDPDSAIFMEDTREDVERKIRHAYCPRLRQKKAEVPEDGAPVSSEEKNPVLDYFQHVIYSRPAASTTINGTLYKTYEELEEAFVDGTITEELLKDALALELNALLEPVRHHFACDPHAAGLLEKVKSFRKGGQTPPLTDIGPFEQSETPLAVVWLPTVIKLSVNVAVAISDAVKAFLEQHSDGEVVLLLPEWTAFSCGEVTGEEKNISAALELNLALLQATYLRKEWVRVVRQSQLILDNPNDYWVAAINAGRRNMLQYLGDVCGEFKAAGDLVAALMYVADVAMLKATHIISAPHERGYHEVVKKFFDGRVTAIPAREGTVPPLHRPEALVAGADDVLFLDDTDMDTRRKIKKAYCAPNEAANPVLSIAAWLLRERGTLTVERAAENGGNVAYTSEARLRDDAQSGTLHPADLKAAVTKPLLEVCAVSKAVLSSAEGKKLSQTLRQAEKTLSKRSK
- procedure.text: Trypanosoma cruzi tyrosyl tRNA synthetase (TcYRS) _High Tyrosine SOP; also: in the data most compounds retested in dose-response had high values
- Type: functional
- Parameters: scale not given: direction of the effect not stated beside the values
- run.parameters: 30 µM
Just the number please, in %, no unit attached.

CC(c1ccc(Cl)cc1)N1CCN(CCS(C)(=O)=O)CC1 (stereo not drawn): 3.7
CCc1noc(C(C)N(C)CC(=O)Nc2cccc(C)n2)n1 (stereo not drawn): -1.07

In the following, a different molecule is considered.
# lookup: CC1=N[C@@]2(CC[C@@H]3CN(CC(=O)N(C)C)C[C@@H]32)C(=O)N1CC(C)C on Tyrosyl-tRNA synthetase, putative (Trypanosoma cruzi (strain CL Brener)) (UniProt Q4DSP6), Percent Effect = 1.06
